biological target: B52 (SRp55) full length (Drosophila melanogaster, UniProt P26686 P26686:1-350); assay: EMSA; 1:1; 50 mM Tris pH 7.6, 200 mM KOAc, 5 mM MgCl2, excess tRNA, gel 4 C; settings: tags: baculovirus/Sf9 expressed, SR protein purification; label: 32P-UTP; hairpin
Sequence (P26686 other isoform, or with tags, fused parts or gaps): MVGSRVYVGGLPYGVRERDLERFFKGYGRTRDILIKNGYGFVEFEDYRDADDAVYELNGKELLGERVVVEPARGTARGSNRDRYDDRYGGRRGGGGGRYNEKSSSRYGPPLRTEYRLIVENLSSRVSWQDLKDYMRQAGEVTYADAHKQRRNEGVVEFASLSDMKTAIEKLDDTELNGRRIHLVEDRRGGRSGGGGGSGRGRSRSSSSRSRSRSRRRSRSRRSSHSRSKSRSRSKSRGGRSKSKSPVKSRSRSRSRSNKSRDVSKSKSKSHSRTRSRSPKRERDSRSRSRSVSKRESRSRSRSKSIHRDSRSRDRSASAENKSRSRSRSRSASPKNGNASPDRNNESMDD
pKd: −log10 of the molar value.
Below, each entry is listed alongside its reported pKd.

1. BBS #8 ScaI-trimmed (ssRNA) RNA: GGGAGAAUUCAACUGCCAUCUAGGCUGGUCAACCAGGCGACCGCCACCCGCGCGCGCAAUACCUAGU	~7.70

Okay, now this binder:
For this binder ( BBS #14 ScaI-trimmed (ssRNA) RNA: GGGAGAAUUCAACUGCCAUCUAGGCAGGGUAACGAUCAACCUGGCGACAGCUGCCCUGCCGUCCAAGU ), measured pKd is ~7.30

Origin of values: patent US20030175730
